Taken from patent US9062026B2.

# System name: p97 (Homo sapiens (Human), UniProt P55072)
# Sequence (P55072 whole entry): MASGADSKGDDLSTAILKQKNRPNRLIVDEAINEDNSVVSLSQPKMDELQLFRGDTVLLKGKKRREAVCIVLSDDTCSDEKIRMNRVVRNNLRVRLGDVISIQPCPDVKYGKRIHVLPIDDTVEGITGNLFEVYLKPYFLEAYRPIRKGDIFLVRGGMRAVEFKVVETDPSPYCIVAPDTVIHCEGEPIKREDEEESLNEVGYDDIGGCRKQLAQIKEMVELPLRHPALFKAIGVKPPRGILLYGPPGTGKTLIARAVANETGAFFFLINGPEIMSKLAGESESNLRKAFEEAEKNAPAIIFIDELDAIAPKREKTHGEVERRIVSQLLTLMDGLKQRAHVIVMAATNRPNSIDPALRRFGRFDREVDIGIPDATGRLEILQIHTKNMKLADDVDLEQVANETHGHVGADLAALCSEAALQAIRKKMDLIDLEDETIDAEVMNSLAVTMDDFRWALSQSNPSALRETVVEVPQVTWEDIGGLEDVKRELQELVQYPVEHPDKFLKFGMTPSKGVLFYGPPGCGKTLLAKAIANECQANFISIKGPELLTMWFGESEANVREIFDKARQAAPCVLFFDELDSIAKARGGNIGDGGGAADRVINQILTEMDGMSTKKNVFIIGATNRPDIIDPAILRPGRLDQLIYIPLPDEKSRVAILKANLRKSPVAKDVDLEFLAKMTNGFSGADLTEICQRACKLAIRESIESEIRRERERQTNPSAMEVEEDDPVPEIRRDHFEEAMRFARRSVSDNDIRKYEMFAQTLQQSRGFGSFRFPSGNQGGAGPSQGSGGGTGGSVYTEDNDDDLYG
# Run description: P97 ATPase biochem assay (ADP Glo)
# Type: biochemical
# Measurement conditions: read-out: p97 IC50
pIC50: −log10 of the molar value.
Reported property: pIC50

COCCOc1cccc2c(NCc3ccccc3)nc(-n3c(OC)cc4ccccc43)nc12: > 7.00
COc1cccc2c(NCc3ccccc3)nc(-n3c(/C=C(/C#N)C(N)=O)cc4ccccc43)nc12: > 7.00
COc1cc2c(C#N)cccc2n1-c1nc2c(c(NCc3ccccc3)n1)CCCC2: > 7.00
COc1cccc2c(NCc3ccccc3)nc(-c3c(C)[nH]c4ccccc34)nc12: > 7.00
Cc1nc2ccccn2c1-c1nc2c(c(NCc3ccccc3)n1)CCCC2: > 6.52
